biological target: Dipeptidyl peptidase 2 (Homo sapiens)
METRIC: IC50 (µM)
Unit µM implied. Number only.

Take a look at these entries with their results.
COMPOUND	OBSERVED MEASUREMENT
CCC(N)C(=O)N1CCCCC1 (stereo not drawn)	88.7
CCC(C)C(N)C(=O)N1CCC(F)C1 (stereo not drawn)	111

// switching to the query compound
The compound NCCCC(N)C(=O)N1CCSC1 (stereo not drawn) , when measured on Dipeptidyl peptidase 2 (Homo sapiens), yielded IC50 of 0.75

----------
target: UniProt Q9UHL4
pIC50: −log10 of the molar value.
Lab note: compare pIC50 against 5. Equal or greater, write TRUE. Smaller, write FALSE.

Given the entry N#C[C@@H]1CCCN1C(=O)[C@@H](N)CCCCN , answer whether its pIC50 meets or surpasses 5.
TRUE

----------
Catalogue of pIC50 readings, one per entry.
molecular target: Dipeptidyl peptidase 4 (Homo sapiens, UniProt P27487)
Sequence (P27487 whole entry): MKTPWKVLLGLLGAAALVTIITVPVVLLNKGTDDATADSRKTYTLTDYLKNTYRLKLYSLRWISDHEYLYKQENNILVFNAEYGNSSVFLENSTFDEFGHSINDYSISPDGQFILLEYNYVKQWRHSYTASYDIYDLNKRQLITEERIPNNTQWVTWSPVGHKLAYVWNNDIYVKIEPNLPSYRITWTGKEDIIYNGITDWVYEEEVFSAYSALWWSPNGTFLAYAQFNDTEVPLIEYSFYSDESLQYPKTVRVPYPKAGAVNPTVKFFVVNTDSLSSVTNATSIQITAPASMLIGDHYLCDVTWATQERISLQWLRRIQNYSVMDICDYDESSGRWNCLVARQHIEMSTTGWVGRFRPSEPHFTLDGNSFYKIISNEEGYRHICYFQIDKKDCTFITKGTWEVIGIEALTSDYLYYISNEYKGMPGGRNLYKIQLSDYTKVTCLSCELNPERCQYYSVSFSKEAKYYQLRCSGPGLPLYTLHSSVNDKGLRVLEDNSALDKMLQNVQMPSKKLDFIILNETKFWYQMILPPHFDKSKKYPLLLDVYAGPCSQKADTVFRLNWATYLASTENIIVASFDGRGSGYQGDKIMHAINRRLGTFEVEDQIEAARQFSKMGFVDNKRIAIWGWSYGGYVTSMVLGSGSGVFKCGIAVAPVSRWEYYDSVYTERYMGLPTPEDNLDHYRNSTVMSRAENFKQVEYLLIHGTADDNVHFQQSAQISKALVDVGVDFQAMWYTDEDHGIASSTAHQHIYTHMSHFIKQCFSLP
Expect pIC50 as a plain number equal to -log10 of the molar concentration.

COMPOUND	TGT	pIC50
NCCCCC(N)C(=O)N1CCC(O)C1 (stereo unspecified)	Dipeptidyl peptidase 4 (Homo sapiens, UniProt P27487)	3.30

Query NC(C(=O)N1CCCCC1)C1CCCCC1 (stereo unspecified) on Dipeptidyl peptidase 4 (Homo sapiens, UniProt P27487); pIC50 returned: 3.66

Reported pIC50 (Dipeptidyl peptidase 4 (Homo sapiens, UniProt P27487)) for entry N#C[C@@H]1CCCN1C(=O)[C@@H](N)CCCCN is 6.49

Param item: CCC(C)C(N)C(=O)N1CCC(N=[N+]=[N-])C1 (stereo unspecified) ; param system: Dipeptidyl peptidase 4 (Homo sapiens, UniProt P27487); output pIC50: 3.97

----------
molecular target: Dipeptidyl peptidase 2 (Homo sapiens, UniProt Q9UHL4)
pIC50: −log10 of the molar value.
Mark yes (1) for reported pIC50 of 4 or greater; mark no (0) for anything smaller.

Example results:
COMPOUND	TGT	CLASSIFICATION
[N-]=[N+]=NC1CCN(C(=O)C(N)CCCCN)C1 (stereo not given)	Dipeptidyl peptidase 2 (Homo sapiens, UniProt Q9UHL4)	yes (1)
CCCN(C)C(=O)C(N)C(C)CC (stereo not given)	Dipeptidyl peptidase 2 (Homo sapiens, UniProt Q9UHL4)	no (0)
NCCC(N)C(=O)N1CCSC1 (stereo not given)	Dipeptidyl peptidase 2 (Homo sapiens, UniProt Q9UHL4)	yes (1)
N[C@@H](CC(=O)O)C(=O)N1CCCC1	Dipeptidyl peptidase 2 (Homo sapiens, UniProt Q9UHL4)	no (0)

Answer whether pIC50 of CCC(C)C(N)C(=O)N1CCC(OC(=O)c2ccccc2)C1 (stereo not given) is greater than or equal to 4.
no (0)

hey, is pIC50 for this one >= 4? CCC(C)C(N)C(=O)N1CCCCC1 (stereo not given)
yes (1)

Does the compound NCCC(N)C(=O)N1CCNCC1 (stereo not given) have recorded pIC50 that is 4 or more?
yes (1)

Assess whether reported pIC50 for CCC(C)C(N)C(=O)N(C)CC (stereo not given) sits at 4 or higher.
no (0)

Form field: pIC50 at least 4? Entry: O=C([C@@H]1CCCN1)N1CCCC1
no (0)

State whether the measured pIC50 reaches 4, counting equality as reaching it, for CCC(C)C(N)C(=O)N1CC=CCC1 (stereo not given)
yes (1)

Given CCC(C)C(N)C(=O)N1CCCCCC1 (stereo not given) , state whether its pIC50 is at least 4.
no (0)

Say whether CCC(C)C(N)C(=O)N(CC)CC (stereo not given) shows pIC50 of 4 or more.
no (0)
